Assay: Pharmacokinetic studies in rats (plasma and brain)
Format: in vivo
Conditions: rat, plasma, ip, 40 mg/kg, rat, i.p. 40 mg/kg, 2h, mean of RM Plasma + Brain 24h rats; read-out: Plasma concentration
readout kind: concentration at 2 h
Answer format reminder: number followed by unit.

Prompt line: Consider the compound shown here: `N[C@H](CNC(=O)C1(c2ccc(Cl)cc2)CCCC1)c1ccc(C(=O)Nc2ccncc2)cc1` What is its recorded concentration at 2 h?
Response line: 14.7 µM

====

Experiment: Pharmacokinetic studies in rats (plasma and brain)
Type: in vivo
Conditions: rat, brain, iv, 40 mg/kg, rat, i.v. 40 mg/kg, 24h, mean of RM Plasma + Brain 24h rats; read-out: Brain concentration
readout kind: concentration at 24 h (nM)
Only the number, expressed in nM, is required.

Prompt line: Consider the compound shown here: `N[C@H](CNC(=O)C1(c2ccc(Cl)cc2)CCCC1)c1ccc(C(=O)Nc2ccncc2)cc1` What is its recorded concentration at 24 h?
Response line: 1460

====

Test: Pharmacokinetic studies in rats (plasma and brain)
Format: in vivo
Settings: rat, plasma, iv, 40 mg/kg, rat, i.v. 40 mg/kg, 2h, mean all rats; read-out: Plasma concentration
readout kind: concentration at 2 h (µM)
Only the number, expressed in µM, is required.

Prompt line: Consider the compound shown here: `N[C@H](CNC(=O)C1(c2ccc(Cl)cc2)CCCC1)c1ccc(C(=O)Nc2ccncc2)cc1` What is its recorded concentration at 2 h?
Response line: 13.9

====

Assay: Pharmacokinetic studies in rats (plasma and brain)
Assay type: in vivo
Conditions: rat, plasma, iv, 40 mg/kg, i.v. 40 mg/kg, 5min, individual rat
readout kind: concentration at 5 min (µM)
Only the number, expressed in µM, is required.

Prompt line: Consider the compound shown here: N[C@H](CNC(=O)C1(c2ccc(Cl)cc2)CCCC1)c1ccc(C(=O)Nc2ccncc2)cc1 [CP612] What is its recorded concentration at 5 min?
Response line: 80.3

====

Experiment: Pharmacokinetic studies in rats (plasma and brain)
Assay type: in vivo
Conditions: rat, brain, ip, 40 mg/kg, rat, i.p. 40 mg/kg, 24h, mean of RM Plasma + Brain 24h rats; read-out: Brain/Plasma
readout kind: Kp at 24 h
// return just the number, without any unit appended

Prompt line: Consider the compound shown here: `N[C@H](CNC(=O)C1(c2ccc(Cl)cc2)CCCC1)c1ccc(C(=O)Nc2ccncc2)cc1` What is its recorded Kp at 24 h?
Response line: 1.18

====

Assay: Pharmacokinetic studies in rats (plasma and brain)
Type: in vivo
Conditions: rat, plasma, iv; rats, 40 mg/kg i.v.
readout kind: half-life (h)
Only the number, expressed in h, is required.

Prompt line: Consider the molecule shown here: `N[C@H](CNC(=O)C1(c2ccc(Cl)cc2)CCCC1)c1ccc(C(=O)Nc2ccncc2)cc1` What is its recorded half-life?
Response line: 4

====

Target: PKCθ (Homo sapiens, UniProt Q04759)
Sequence (Q04759 whole entry): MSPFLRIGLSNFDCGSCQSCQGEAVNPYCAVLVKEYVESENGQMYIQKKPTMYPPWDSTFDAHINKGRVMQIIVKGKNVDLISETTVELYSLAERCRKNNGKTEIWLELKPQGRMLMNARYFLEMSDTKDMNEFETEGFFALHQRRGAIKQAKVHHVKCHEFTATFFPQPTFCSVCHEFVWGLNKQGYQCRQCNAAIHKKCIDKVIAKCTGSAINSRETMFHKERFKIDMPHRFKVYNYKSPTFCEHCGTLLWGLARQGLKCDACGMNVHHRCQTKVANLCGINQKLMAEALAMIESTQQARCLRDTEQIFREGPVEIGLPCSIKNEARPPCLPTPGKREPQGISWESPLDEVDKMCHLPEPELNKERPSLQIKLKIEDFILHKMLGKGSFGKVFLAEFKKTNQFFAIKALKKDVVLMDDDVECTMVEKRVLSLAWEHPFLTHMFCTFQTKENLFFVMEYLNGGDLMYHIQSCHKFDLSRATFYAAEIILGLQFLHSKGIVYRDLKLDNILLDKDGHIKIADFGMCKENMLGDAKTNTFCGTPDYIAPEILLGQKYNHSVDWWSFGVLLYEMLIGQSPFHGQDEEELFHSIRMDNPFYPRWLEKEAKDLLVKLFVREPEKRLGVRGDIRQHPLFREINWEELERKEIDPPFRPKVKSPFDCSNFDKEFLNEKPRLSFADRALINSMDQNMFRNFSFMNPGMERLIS
readout kind: IC50 (nM)
Only the number, expressed in nM, is required.

Prompt line: Consider the molecule shown here: `N[C@H](CNC(=O)C1(c2ccc(Cl)cc2)CCCC1)c1ccc(C(=O)Nc2ccncc2)cc1` What is its recorded IC50?
Response line: 30.7

====

Assay: Pharmacokinetic studies in rats (plasma and brain)
Type: in vivo
Settings: rat, brain, iv, 40 mg/kg, rat, i.v. 40 mg/kg, 24h, mean all rats; read-out: Brain concentration
readout kind: concentration at 24 h
Answer format reminder: number followed by unit.

Prompt line: Consider the compound shown here: `N[C@H](CNC(=O)C1(c2ccc(Cl)cc2)CCCC1)c1ccc(C(=O)Nc2ccncc2)cc1` What is its recorded concentration at 24 h?
Response line: 1460 nM
